system.tested: 5-hydroxytryptamine receptor 2A (Homo sapiens)
Sequence (P28223 whole entry): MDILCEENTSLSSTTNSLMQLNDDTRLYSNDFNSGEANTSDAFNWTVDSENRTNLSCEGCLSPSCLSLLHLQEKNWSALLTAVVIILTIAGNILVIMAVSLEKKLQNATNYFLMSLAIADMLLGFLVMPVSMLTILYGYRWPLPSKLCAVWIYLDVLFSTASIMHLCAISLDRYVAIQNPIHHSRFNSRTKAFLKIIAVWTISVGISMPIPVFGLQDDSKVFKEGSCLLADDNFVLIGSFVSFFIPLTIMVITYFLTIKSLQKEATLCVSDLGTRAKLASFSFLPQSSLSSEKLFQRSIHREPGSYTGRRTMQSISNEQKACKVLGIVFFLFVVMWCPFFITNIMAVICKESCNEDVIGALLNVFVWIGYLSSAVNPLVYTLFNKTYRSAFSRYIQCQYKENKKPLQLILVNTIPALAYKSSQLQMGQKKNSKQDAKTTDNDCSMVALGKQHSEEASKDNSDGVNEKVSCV
test.description: Membranes were incubated in a total volume of 200 ul with a fixed concentration of radioligand (final concentration approximately 0.7 nM [3H]-spiperone for D2, 0.5 nM [3H]-spiperone for D3, and 1.1 nM [3H]-ketanserin for 5-HT2A) and ten concentrations of test compound in ranging between 10 uM-0.1 nM for 1 h at RT. At the end of the incubation, the reaction mixtures were filtered on to unifilter 96-well white microplates with bonded GF/C filters.
Listing of recorded pKi by entry.
pKi is a log-scale quantity: -log10 of the concentration expressed in molar.

{"columns": ["compound.structure.string", "val"],
 "data": [
  ["COCCC(=O)N[C@H]1CC[C@H](CCN2CCC(c3noc4ccc(F)cc34)CC2)CC1", 7.43],
  ["O=S(=O)(N[C@H]1CC[C@H](CCN2CCC(c3noc4cc(F)ccc34)CC2)CC1)c1cccnc1", 8.61]
]}

Let us examine a further case.
Task: Lab note: need pKi for `O=C(N[C@H]1CC[C@H](CCN2CCC(c3noc4cc(F)ccc34)CC2)CC1)c1ccc2c(c1)OCO2` on 5-hydroxytryptamine receptor 2A (Homo sapiens), anyone have it?
Result: 8.77
